Reported IC50 values are given for each entry in this list.
Biological target: T1, human IL-1β (human, UniProt P01584 117-269)
T1 construct: antigen of the ABT2 dAbs; also called hIL-1β; IL-1 beta
Assay: IC50 column of Table 63; receptor binding assay presumed
MEASURED ENDPOINT: IC50 (nM)

BINDER: ABT2-65-119 (other, VH dAb) VH: EVQLLESGGGLVQPGGSLRLSCAASGFTFIAYPMGWVRQAPGKGLEWVSSISAMGNRTYYADSVKGRFTISRDDSKNTLYLQMNSLRAEDTAVYYCAQNLVRLGRSRWMFDYWGQGTLVTVSS
VALUE REPORTED: 4
//
BINDER: ABT2-65-174 (other, VH dAb) VH: EVQLLESGGGLVQPGGSLRLSCAASGFTFEDYQMGWVRQAPGKGLEWVSSISAMGNRTYYADSVKGRFTISRDDSKNTLYLQMNSLRAEDTAVYYCAQNLVRFKKTQWMFDYWGQGTLVTVSS
VALUE REPORTED: 10
//
BINDER: ABT2-65-15 (other, VH dAb) VH: EVQLLESGGGLVQPGGSLRLSCAASGFTFGIYQMGWVRQAPGKGLEWVSSISAMGNRTYYADSVKGRFTISRDDSKNTLYLQMNSLRAEDTAVYYCAQNLVRTQSKMWMFDYWGQGTLVTVSS
VALUE REPORTED: 100
//
BINDER: ABT2-65-172 (other, VH dAb) VH: EVQLLESGGGLVQPGGSLRLSCAASGFTFEDYQMGWVRQAPGKGLEWVSSISAMGNRTYYADSVKGRFTISRDDSKNTLYLQMNSLRAEDTAVYYCAENLVRWKKGSWMFDYWGQGTLVTVSS
VALUE REPORTED: 6
//
BINDER: ABT2-65-173 (other, VH dAb) VH: EVQLLESGGGLVQPGGSLRLSCAASGFTFEDYQMGWVRQAPGKGLEWVSSISAMGNRTYYADSVKGRFTISRDDSKNTLYLQMNSLRAEDTAVYYCAQNLVRFRAKEWMFDYWGQGTLVTVSS
VALUE REPORTED: 30
//
BINDER: ABT2-13 (other) VH: EVQLLESGGGLVQPGGSLRLSCAASGFTFRDYVMYWARQAPGKGLEWVSRIDPMGSSTYYADSVKGRFTISRDNSKNTLYLQMNSLRAEDTAVYYCAKPEGNFDYWGQGTLVTVSS
VALUE REPORTED: 175
//
BINDER: ABT2-65-82 (other, VH dAb) VH: EVQLLESGGGLVRPGGSLRLSCVASGFTFEDYQMGWVRQAPGKGLEWVSSISAMGNRTYYADSVKGRFTISRDDPKNTLYLQMNSLRAEDTAVYYCAQNLVRLGRSRWMFDYWGQGTLVTVSS
VALUE REPORTED: 8
//
BINDER: ABT2-65-13 (other, VH dAb) VH: EVQLLESGGGLVQPGGSLRLSCAASGFTFREYQMGWVRQAPGKGLEWVSSISAMGNRTYYADSVKGRFTISRDDSKNTLYLQMNSLRAEDTAVYYCANNLVRTQSKMWMFDYWGQGTLVTVSS
VALUE REPORTED: 20
